src = paper PMC4741719

- Test system: H3K27me3 in Pfeiffer cells stably-expressing Y111D/A677G EZH2 mutant
- test: Cellular H3K27me3 AlphaLISA, Pfeiffer cells stably-expressing Y111D/A677G EZH2
- experimental.conditions: Homo sapiens, read-out: IC50 H3K27me3
metric: IC50 (µM)
Numbers only, in µM.

-- ask I have this molecule here, `CC[C@H](C)n1cc(C)c2c(C(=O)NCc3c(C)cc(C)[nH]c3=O)cc(-c3ccc(N4CCNCC4)nc3)cc21` , and I need its recorded IC50.
-- reply 5

====

- Test system: E-200 Pfeiffer cells
- test: Viability assay, EPZ-6438-resistant E-200 Pfeiffer cells
- Format: cell-based
- experimental.conditions: Homo sapiens, E-200, Wash 8 weeks (drug withdrawal), Figure 1E, read-out: IC50 cell viability
metric: pIC50
One number for each entry, as −log10 of the molar value.

-- ask Given `CC[C@H](C)n1cc(C)c2c(C(=O)NCc3c(C)cc(C)[nH]c3=O)cc(-c3ccc(N4CCNCC4)nc3)cc21` , state its recorded pIC50.
-- reply 5.70

====

- Test system: Pfeiffer cells stably-expressing Y111D/A677G EZH2 mutant
- test: Viability assay, Pfeiffer cells stably-expressing Y111D/A677G EZH2
- experimental.conditions: Homo sapiens, read-out: IC50 cell viability
metric: pIC50
Answers are plain numbers, as −log10 of the molar value.

-- ask pIC50 for CC[C@H](C)n1cc(C)c2c(C(=O)NCc3c(C)cc(C)[nH]c3=O)cc(-c3ccc(N4CCNCC4)nc3)cc21 [GSK126] ?
-- reply 5.57

====

- System: Pfeiffer cells (Parental)
- test: Viability assay (Cell-Titer-Glo, 6 days), parental Pfeiffer cells
- Assay type: cell-based
- experimental.conditions: Homo sapiens, Pfeiffer Parental, Figure 3C
metric: pIC50
Give bare numbers, as −log10 of the molar value.

-- ask // returns reported pIC50 for input `CC[C@H](C)n1cc(C)c2c(C(=O)NCc3c(C)cc(C)[nH]c3=O)cc(-c3ccc(N4CCNCC4)nc3)cc21`
-- reply 7.48

====

- System: Pfeiffer cells stably expressing Y111D/A677G/H689A
- test: Viability assay, Pfeiffer cells stably expressing Y111D/A677G/H689A EZH2
- experimental.conditions: Homo sapiens, read-out: IC50 cell viability
metric: pIC50
Numbers only, as −log10 of the molar value.

-- ask Need pIC50, item `CC[C@H](C)n1cc(C)c2c(C(=O)NCc3c(C)cc(C)[nH]c3=O)cc(-c3ccc(N4CCNCC4)nc3)cc21`
-- reply 7.60
